Tested on: A549
Assay: cells
Settings: Homo sapiens
Description: Antiproliferative activity against human A549 cells by MTT assay
ATTRIBUTE_MEASURED: IC50

SMILES_INPUT	IC50
CN(C)C(=O)c1cc(NCc2cn(-c3cccc(NC(=O)c4cc(F)cc(F)c4)c3)nn2)ccc1N(C)C	4.93 µM

Input: # query: IC50 of entry O=C(Nc1cccc(-n2cc(CNc3ccc(NCCO)c(C(=O)N4CCCCC4)c3)nn2)c1)c1cc(F)cc(F)c1
Output: > 10 µM

Input: Please answer likewise for O=C(Nc1cccc(-n2cc(CNc3ccc(N4CCCCC4)c(C(=O)N4CCCCC4)c3)nn2)c1)c1cc(F)cc(F)c1
Output: > 10 µM

Input: Now try O=C(Nc1cccc(-n2cc(CNc3ccc(N4CCC(O)CC4)c(C(=O)N4CCCCC4)c3)nn2)c1)c1cc(F)cc(F)c1 .
Output: > 10 µM

###

Tested on: KARPAS-299
Test: Antiproliferative activity against human KARPAS-299 cells by MTT assay
ATTRIBUTE_MEASURED: IC50 (nM)

SMILES_INPUT	UOM	VALUE_REPORTED
O=C(Nc1cccc(-n2cc(CNc3ccc(N4CCC(O)CC4)c(C(=O)N4CCOCC4)c3)nn2)c1)c1cc(F)cc(F)c1	nM	425
O=C(Nc1cccc(-n2cc(CNc3ccc(N4CC(O)C4)c(C(=O)N4CCOCC4)c3)nn2)c1)c1cc(F)cc(F)c1	nM	594
O=C(Nc1cccc(-n2cc(CNc3ccc(NCCO)c(C(=O)N4CCCCC4)c3)nn2)c1)c1cc(F)cc(F)c1	nM	602

###

Tested on: KARPAS-299
Test: Antiproliferative activity against human KARPAS-299 cells by MTT assay
ATTRIBUTE_MEASURED: IC50 (nM)

In the examples that follow, each entry is paired with its recorded IC50.
SMILES_INPUT	UOM	IC50
CC1CCN(c2ccc(NCc3cn(-c4cccc(NC(=O)c5cc(F)cc(F)c5)c4)nn3)cc2C(=O)N2CCOCC2)CC1	nM	2310
O=C(Nc1cccc(-n2cc(CNc3ccc(N4CCC(O)CC4)c(C(=O)N4CCCC4)c3)nn2)c1)c1cc(F)cc(F)c1	nM	51
CC1CCN(c2ccc(NCc3cn(-c4cccc(NC(=O)c5cc(F)cc(F)c5)c4)nn3)cc2C(=O)N(C)C)CC1	nM	191
CN(C)c1ccc(NCc2cn(-c3cccc(NC(=O)c4cc(F)cc(F)c4)c3)nn2)cc1C(=O)N1CCOCC1	nM	1760
CN1CCN(c2ccc(NCc3cn(-c4cccc(NC(=O)c5cc(F)cc(F)c5)c4)nn3)cc2C(=O)N2CCCCC2)CC1	nM	91
CN1CCN(c2ccc(NCc3cn(-c4cccc(NC(=O)c5cc(F)cc(F)c5)c4)nn3)cc2C(=O)N2CCOCC2)CC1	nM	452

A = CN1CCN(c2ccc(NCc3cn(-c4cccc(NC(=O)c5cc(F)cc(F)c5)c4)nn3)cc2C(=O)N2CCCC2)CC1
B = CN(C)C(=O)c1cc(NCc2cn(-c3cccc(NC(=O)c4cc(F)cc(F)c4)c3)nn2)ccc1NCCO
C = O=C(Nc1cccc(-n2cc(CNc3ccc(N4CC(O)C4)c(C(=O)N4CCCCC4)c3)nn2)c1)c1cc(F)cc(F)c1
Input: Rank entries according to their IC50, from the largest number down. Put the labels in the requested order and write them down.
Output: B, A, C
(B: 492 nM, A: 79 nM, C: 55 nM)

Data origin: ChEMBL document CHEMBL5223127
